Target: human A2A receptors (Homo sapiens (Human))
Sequence (P29274 whole entry): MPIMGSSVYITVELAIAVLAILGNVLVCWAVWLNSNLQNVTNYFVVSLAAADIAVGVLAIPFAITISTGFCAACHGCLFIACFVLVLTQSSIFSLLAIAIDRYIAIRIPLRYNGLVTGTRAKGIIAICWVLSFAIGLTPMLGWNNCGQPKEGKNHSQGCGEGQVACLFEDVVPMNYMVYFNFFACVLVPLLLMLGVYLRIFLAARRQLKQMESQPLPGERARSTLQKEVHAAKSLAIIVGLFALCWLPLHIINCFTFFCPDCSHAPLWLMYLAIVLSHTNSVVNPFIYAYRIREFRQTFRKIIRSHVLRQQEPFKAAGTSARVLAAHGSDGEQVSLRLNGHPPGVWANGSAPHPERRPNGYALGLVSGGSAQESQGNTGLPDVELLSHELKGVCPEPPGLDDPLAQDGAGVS
Experiment: A2A antagonism in cAMP cell-based assay (LANCE cAMP, HEK293)
Details: HEK293 cells expressing human A2A receptor
pIC50: −log10 of the molar value.
Recorded Metric: pIC50

* CC1CC(c2nc3c4cc(F)cc(F)c4nc(N)n3n2)CN(c2cnn(C(C)(C)CO)c2)C1 (single isomer, unassigned) [Example 179] | 8.40
* COc1cc(F)cc2c1nc(N)n1nc([C@@H]3CCCN(c4cnn(C(C)C(C)O)c4)C3)nc21 (single isomer, unassigned) [Example 201] | 8.72
* Cc1c(N2CC(C)CC(c3nc4c5cc(F)cc(F)c5nc(N)n4n3)C2)cnn1C(C)C(C)O (single isomer, unassigned) [Example 217] | 8.96
* COc1cc(F)cc2c1nc(N)n1nc([C@@H]3CCCN(c4cnn(C(C)C(C)O)c4)C3)nc21 (single isomer, unassigned) [Example 186] | 9.00
* Cc1c(N2CC(C)CC(c3nc4c5cc(F)cc(F)c5nc(N)n4n3)C2)cnn1C(C)C(C)O (single isomer, unassigned) [Example 219] | 6.61
* CC1CC(c2nc3c4cc(F)cc(F)c4nc(N)n3n2)CN(c2cnn(CC(C)(C)O)c2)C1 (single isomer, unassigned) [Example 182] | 6.44
* COc1cc2nc(N)n3nc(C4CCC(C)N(c5cnn(C(C)(C)C(C)O)c5)C4)nc3c2cc1F (single isomer, unassigned) [Example 264] | 8.52
* COc1cc(F)cc2c1nc(N)n1nc(C3CC(C)CN(c4cnn(C(C)(C)CO)c4)C3)nc21 (single isomer, unassigned) [Example 166] | 7.70
* CC1CCC(c2nc3c4cc(F)cc(F)c4nc(N)n3n2)CN1c1cnn(CC(C)(O)CO)c1 (single isomer, unassigned) [Example 257] | 6.27
* COc1cc(F)cc2c1nc(N)n1nc(C3CC(C)CN(c4cn(C(C)(C)C(C)O)nc4C)C3)nc21 (single isomer, unassigned) [Example 207] | 9.05
* COc1cc(F)cc2c1nc(N)n1nc([C@@H]3CCCN(c4cn(C(C)C(C)O)nc4C)C3)nc21 (single isomer, unassigned) [Example 190] | 9.10
* C[C@H]1CC[C@@H](c2nc3c4cc(F)cc(F)c4nc(N)n3n2)CN1c1cnn(C(C)(CO)CO)c1 (single isomer, unassigned) [Example 248] | 8.85

* * *

Endpoint: log10 IC50. System: human A2b adenosine receptor (Homo sapiens (Human), UniProt P29275). Items follow.
Sequence (P29275 whole entry): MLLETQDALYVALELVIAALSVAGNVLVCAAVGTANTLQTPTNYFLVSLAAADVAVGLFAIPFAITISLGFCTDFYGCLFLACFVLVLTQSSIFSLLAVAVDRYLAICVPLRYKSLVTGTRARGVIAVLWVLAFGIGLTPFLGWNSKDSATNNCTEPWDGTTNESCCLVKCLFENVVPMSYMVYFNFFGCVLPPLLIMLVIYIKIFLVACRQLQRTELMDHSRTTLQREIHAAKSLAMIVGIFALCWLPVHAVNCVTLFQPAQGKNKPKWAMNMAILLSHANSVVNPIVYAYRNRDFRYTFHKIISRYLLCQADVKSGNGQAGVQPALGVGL
Recorded Metric: log10 IC50 (log10 of the value in µM)

* COc1cc(F)cc2c1nc(N)n1nc([C@@H]3CCCN(c4cnn(CC5(O)CCC5)c4)C3)nc21 [Example 31] | -1.02
* COc1cc(Cl)cc2c1nc(N)n1nc(C3CCCN(c4cnn(C)c4)C3)nc21 (single isomer, unassigned) [Example 104] | -0.12
* COc1cc2nc(N)n3nc([C@@H]4CC[C@H](C)N(c5cnn(C6CCC(C)(O)CC6)c5)C4)nc3c2cc1F (single isomer, unassigned) [Example 97] | -1.48
* COc1cc2nc(N)n3nc(C45CC4CN(c4cnn(CC(C)(C)O)c4)C5)nc3c2cc1F (single isomer, unassigned) [Example 58] | -0.87
* COc1cc2nc(N)n3nc([C@@H]4CCCN(c5cnn(C(C)C)c5)C4)nc3c2cc1F [Example 4] | -2.59
* COc1cc2nc(N)n3nc(C4CN(c5cnn(CC(C)(C)O)c5C)CCS4(=O)=O)nc3c2cc1F (single isomer, unassigned) [Example 145] | 0.91
* COc1cc2nc(N)n3nc(C4CCC(C)N(c5cnn(CC(C)(C)O)c5C)C4)nc3c2cc1F (single isomer, unassigned) [Example 41] | -1.37
